- Target desc: Factor X (FX), P00742
- Sequence (P00742 whole entry, looked up): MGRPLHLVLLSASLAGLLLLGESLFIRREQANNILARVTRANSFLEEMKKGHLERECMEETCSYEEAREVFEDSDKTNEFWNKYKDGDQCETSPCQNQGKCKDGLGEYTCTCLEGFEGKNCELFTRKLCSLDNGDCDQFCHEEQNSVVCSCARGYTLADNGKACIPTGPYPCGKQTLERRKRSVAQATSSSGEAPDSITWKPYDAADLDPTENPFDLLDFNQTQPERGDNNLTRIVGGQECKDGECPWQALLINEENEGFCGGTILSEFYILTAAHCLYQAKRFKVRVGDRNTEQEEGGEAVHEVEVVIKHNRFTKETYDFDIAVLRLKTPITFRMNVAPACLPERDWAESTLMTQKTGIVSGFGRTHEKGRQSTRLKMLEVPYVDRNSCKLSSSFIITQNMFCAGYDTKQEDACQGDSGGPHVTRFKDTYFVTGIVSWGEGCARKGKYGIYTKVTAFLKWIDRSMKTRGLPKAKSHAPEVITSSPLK
Parameter measured: kcat/KM for FX activation (Xase: FVIIIa, PC/PS vesicles, Ca2+) (M⁻¹ s⁻¹)
Give the value, in units of M⁻¹ s⁻¹, as a plain number.

query: # input protein: FIXa-K247N/N249S/T343R/R403E/E410N (protein) chain 1: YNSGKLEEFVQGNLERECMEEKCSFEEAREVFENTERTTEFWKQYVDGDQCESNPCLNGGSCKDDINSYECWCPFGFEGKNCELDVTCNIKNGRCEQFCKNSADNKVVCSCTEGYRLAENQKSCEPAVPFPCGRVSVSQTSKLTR chain 2: VVGGEDAKPGQFPWQVVLNGKVDAFCGGSIVNEKWIVTAAHCVETGVKITVVAGEHNIEETEHTEQNRSVIRIIPHHNYNAAINKYNHDIALLELDEPLVLNSYVTPICIADKEYTNIFLKFGSGYVSGWGRVFHKGRSALVLQYLRVPLVDRATCLRSTKFRIYNNMFCAGFHEGGRDSCQGDSGGPHVTEVEGTSFLTGIISWGEECAMKGKYGIYTKVSEYVNWIKNKTKLT ; wanted: its kcat/KM for FX activation (Xase: FVIIIa, PC/PS vesicles, Ca2+)
result: 1.3e+08

query: Item: FIXa-Y155F/K247N/N249S/R318Y/R403E (protein) chain 1: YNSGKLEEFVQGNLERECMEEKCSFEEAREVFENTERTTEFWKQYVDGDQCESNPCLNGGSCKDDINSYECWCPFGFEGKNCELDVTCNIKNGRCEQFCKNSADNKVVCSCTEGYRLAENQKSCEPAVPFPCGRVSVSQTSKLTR chain 2: VVGGEDAKPGQFPWQVVLNGKVDAFCGGSIVNEKWIVTAAHCVETGVKITVVAGEHNIEETEHTEQNRSVIRIIPHHNYNAAINKYNHDIALLELDEPLVLNSYVTPICIADKEYTNIFLKFGSGYVSGWGRVFHKGYSALVLQYLRVPLVDRATCLRSTKFTIYNNMFCAGFHEGGRDSCQGDSGGPHVTEVEGTSFLTGIISWGEECAMKGKYGIYTKVSEYVNWIKEKTKLT
result: 1.6e+07
